Ref: patent US9580430B2

- TESTED_TARGET: recombinant BRD4 BD1 (Homo sapiens, UniProt O60885)
- Construct: for recombinant BRD4 BD1 and BRD4 BD2 proteins
- PROTOCOL: Competitive fluorescence-polarization (FP) binding assay, BRD4 BD1; also: probe 1.5 nM
- ASSAY_CONDITIONS: competitive FP assay; protein 10 nM, probe […]; read-out: IC50 (nM) BRD4 BD1
QUANTITY_KIND: IC50 (nM)

SMILES_DATA | QUALIFYING_SIGN | VALUE_OBSERVED
COc1cc2c(cc1-c1c(C)noc1C)[nH]c1nc(C)nc(Nc3cnn4cccnc34)c12 | = | 248
COc1cc2c(cc1-c1c(C)noc1C)[nH]c1nc(C)nc(Nc3cn(C)nc3C(C)(C)O)c12 | = | 21.9
COc1cc2c(cc1-c1c(C)noc1C)[nH]c1nc(C)nc(Nc3cc(C(C)(C)C)ns3)c12 | > | 1000
COc1cc2c3c(N(C)c4cc(C5CC5)nn4C4CN(C)C4)nc(C)nc3n(C)c2cc1-c1c(C)noc1C | = | 8.1
COc1cc2c(cc1-c1c(C)noc1C)[nH]c1nc(C)nc(Nc3cc(C)ccc3C)c12 | = | 5
COc1cc2c(cc1-c1c(C)noc1C)[nH]c1nc(C)nc(Nc3cncc(Cl)c3)c12 | = | 1410
CCc1nn(C)cc1Nc1nc(C)nc2[nH]c3cc(-c4c(C)noc4C)c(OC)cc3c12 | = | 15.6
